Hi there, I'd appreciate the recorded % inhibition for every entry that follows.
biological target: T1, recombinant human EGFR extracellular domain with 6xHis (human, UniProt P00533 25-645); experiment: SPR competition, competitor 1449
T1 construct: In-house produced; also called 6xHis EGFR ECD; soluble human EGFR ECD; not shown: 6xHis tag
Numbers only, in %.

{"columns": ["binder", "value.type", "quantity.unit", "result"],
 "data": [
  ["antibody 1030 (antibody, human IgG1, kappa, V domains shown, Chimeric IgG1 kappa) VH: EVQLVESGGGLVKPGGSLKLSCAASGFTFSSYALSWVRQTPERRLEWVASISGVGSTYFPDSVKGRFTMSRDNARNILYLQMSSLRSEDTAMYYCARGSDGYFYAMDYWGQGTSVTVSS VL: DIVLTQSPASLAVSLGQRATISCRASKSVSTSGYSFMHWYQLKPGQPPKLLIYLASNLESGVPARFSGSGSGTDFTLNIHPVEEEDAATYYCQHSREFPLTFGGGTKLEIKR", "% inhibition", "%", 4],
  ["antibody 1042 (antibody, human IgG1, kappa, V domains shown, Chimeric IgG1 kappa; RA- left out of the VH entry) VH: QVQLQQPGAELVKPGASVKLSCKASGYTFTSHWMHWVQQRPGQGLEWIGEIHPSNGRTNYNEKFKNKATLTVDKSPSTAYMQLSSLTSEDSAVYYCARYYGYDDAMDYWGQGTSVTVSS VL: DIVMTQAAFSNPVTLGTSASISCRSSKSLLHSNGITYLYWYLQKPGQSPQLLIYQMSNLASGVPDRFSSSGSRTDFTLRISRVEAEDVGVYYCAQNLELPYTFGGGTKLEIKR", "% inhibition", "%", 93],
  ["antibody 1320 (antibody, human IgG1, kappa, V domains shown, Chimeric IgG1 kappa) VH: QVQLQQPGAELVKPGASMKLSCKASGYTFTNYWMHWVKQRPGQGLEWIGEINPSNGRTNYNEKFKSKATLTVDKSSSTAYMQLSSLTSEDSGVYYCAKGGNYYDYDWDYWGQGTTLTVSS VL: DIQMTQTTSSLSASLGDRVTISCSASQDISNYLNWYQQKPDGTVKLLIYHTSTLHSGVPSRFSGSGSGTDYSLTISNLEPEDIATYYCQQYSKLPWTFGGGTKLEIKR", "% inhibition", "%", 50]
]}

The record that follows has no % inhibition shown yet.
Read the entry antibody 1284 (antibody, human IgG1, kappa, V domains shown, Chimeric IgG1 kappa) VH: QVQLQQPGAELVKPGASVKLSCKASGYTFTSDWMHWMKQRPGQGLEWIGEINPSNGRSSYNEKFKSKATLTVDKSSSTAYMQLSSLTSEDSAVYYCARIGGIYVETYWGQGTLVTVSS VL: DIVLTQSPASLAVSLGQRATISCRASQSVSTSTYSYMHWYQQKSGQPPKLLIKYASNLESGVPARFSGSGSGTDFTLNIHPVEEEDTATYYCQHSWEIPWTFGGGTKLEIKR and write its reported % inhibition.
-1
